Taken from paper PMC7939384.

Target: human PYCR1 (Homo sapiens, UniProt P32322)
Sequence (P32322 1-300): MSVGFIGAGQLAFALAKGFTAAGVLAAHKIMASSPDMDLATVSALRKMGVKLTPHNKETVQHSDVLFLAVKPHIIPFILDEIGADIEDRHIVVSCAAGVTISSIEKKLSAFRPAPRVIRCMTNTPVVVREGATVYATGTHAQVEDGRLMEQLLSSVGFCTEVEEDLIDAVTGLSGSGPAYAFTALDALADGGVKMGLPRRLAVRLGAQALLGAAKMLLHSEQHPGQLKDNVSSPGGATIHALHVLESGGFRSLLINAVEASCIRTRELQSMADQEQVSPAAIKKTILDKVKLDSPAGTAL
Assay: biochemical
Conditions: Ki, competitive with P5C; NADH fixed 175 μM; 50 mM Tris pH 7.5; global fit
pKi: −log10 of the molar value.
Tick y if pKi is 3 or greater. Tick n if pKi is less than 3.

Consider the following illustrative entries.
O=CN1CCC[C@H]1C(=O)O    y
O=C(O)C1NCCS1 [L-T2C, L-thiazolidine-2-carboxylate]    y
O=C(O)[C@@H]1CCCO1 [THFA, (S)-(−)-tetrahydro-2-furoic acid]    n

We now examine a further compound.
I'd appreciate it if you could say whether O=C(O)[C@@H]1CSCN1 [L-T4C, L-thiazolidine-4-carboxylate] has pKi at least equal to 3. y
